Target: T1, DFNB31_3, Q9P202
T1 sequence (Q9P202 811-907, limits assumed, looked up): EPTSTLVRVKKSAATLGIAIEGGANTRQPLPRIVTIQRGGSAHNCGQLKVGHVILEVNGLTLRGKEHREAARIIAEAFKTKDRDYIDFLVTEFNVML
Assay: holdup assay
Set-up: key: below the threshold = too weak to quantify, mostly under pKd 3.1 to 4
Conditions: plain residues with an end cap or a label only (N-terminal biotin on a linker: ado-ado)
ASSAY ENDPOINT: pKd

The following binders have reported results that may help.
[[record]]
binder = "PPYRHRNTVV [ERBB4, Q15303]"
value_reported = "below the threshold"

[[record]]
binder = "QSPANIYYKV [EFNB1, P52799]"
value_reported = "below the threshold"

[[record]]
binder = "LRSPRTPSEV [OR10G3, Q8NGC4]"
value_reported = 3.79

[[record]]
binder = "NLSIEKETKL [ASNSD1, Q9NWL6]"
value_reported = 3.52

[[record]]
binder = "YLEPVLSSEL [ATP2A2, P16615;P16615-3]"
value_reported = 4.03


Data request: # query: pKd of entry TSSMRGMDAV [RSRC2, Q7L4I2]
Data returned: below the threshold

Data request: # query: pKd of entry QSARLWETSI [ADAM22, Q9P0K1]
Data returned: 4.2

Data request: # query: pKd of entry PRAEAEDSFL [PDGFRB, P09619]
Data returned: below the threshold

Data request: # query: pKd of entry LGRSTPQSEV [DGKH, Q86XP1]
Data returned: below the threshold

Data request: # query: pKd of entry DDPSTAETVL [ABCA7, Q8IZY2]
Data returned: 3.63

Data request: # query: pKd of entry IKAIVDLTGL [TRAF2, Q12933]
Data returned: below the threshold

Data request: # query: pKd of entry NHSSSPETTA [TRMT13, Q9NUP7]
Data returned: below the threshold
